Test: recombinant barcode read abundance after kanamycin selection (control-corrected) (log10(CPM+1)); higher = more efficient recombination; sequences stand for … in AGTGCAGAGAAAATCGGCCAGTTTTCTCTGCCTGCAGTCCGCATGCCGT…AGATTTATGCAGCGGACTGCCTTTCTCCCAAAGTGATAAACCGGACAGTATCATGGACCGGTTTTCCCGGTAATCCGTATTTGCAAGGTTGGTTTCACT; site = the 11-nt target;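 further: IS621 recombinase and bridge RNA in Escherichia coli cells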
Reported recombinant barcode read abundance (log10) values for the following sequences.
Respond numerically, and do not add a unit to the figure.

>>> value_observed("ACTCAGGCTTGGGTTCTAACCTGTTGCCG (site ACAGAGGCTCG)")
0.138
>>> value_observed("TAGCTTACTTGGGTTCTAACCTGTTGCCG (site TAACTTACTAG)")
0.114
>>> value_observed("TAGGGAGCTTGGGTTCTAACCTGTTGCAT (site TAGGGAGCTAT)")
2.8
>>> value_observed("GGGGCTTCTTGGGTTCTAACCTGTTGCAT (site GGGCCTTCTAT)")
0.0416

In the following, a different sequence is considered.
Task item: Query (sequence): ACATGAACTTGGGTTCTAACCTGTTGCCT (site ACGTGAACTAG) ; field requested: recombinant barcode read abundance (log10)
Reply: 0.0989

The origin of these recorded values is the supplement of paper PMC11208160.
